As shown below, each of these molecules has a reported activity coefficient value.
assay summary: activity coefficient (dimensionless); of the first substance listed, at infinite dilution; xn = mol fraction of the nth substance listed
run parameters: 318.15 K; Liquid; Chromatography; x1 = 0
Reply with just the number.

Query (molecule): C#CCCCC [1-hexyne] + CCCC[N+]1(C)CCCC1.O=S(=O)([O-])C(F)(F)F ; field requested: activity coefficient
3.76

Query (molecule): c1ccsc1 [thiophene] + CCCC[N+]1(C)CCCC1.O=S(=O)([O-])C(F)(F)F ; field requested: activity coefficient
1.06

Query (molecule): CCCCCCC [heptane] + CCCC[N+]1(C)CCCC1.O=S(=O)([O-])C(F)(F)F ; field requested: activity coefficient
59.3

Query (molecule): CCCCCCCCC [nonane] + CCCC[N+]1(C)CCCC1.O=S(=O)([O-])C(F)(F)F ; field requested: activity coefficient
111

Query (molecule): CCCCCCCC [octane] + CCCC[N+]1(C)CCCC1.O=S(=O)([O-])C(F)(F)F ; field requested: activity coefficient
79.4

Query (molecule): CO [methanol] + CCCC[N+]1(C)CCCC1.O=S(=O)([O-])C(F)(F)F ; field requested: activity coefficient
0.655

Query (molecule): C1CCCC1 [cyclopentane] + CCCC[N+]1(C)CCCC1.O=S(=O)([O-])C(F)(F)F ; field requested: activity coefficient
15.9

Query (molecule): C=CCCCC [hex-1-ene] + CCCC[N+]1(C)CCCC1.O=S(=O)([O-])C(F)(F)F ; field requested: activity coefficient
19.2

Query (molecule): Cc1ccccc1 [toluene] + CCCC[N+]1(C)CCCC1.O=S(=O)([O-])C(F)(F)F ; field requested: activity coefficient
2.22

Query (molecule): C1CCCCCC1 [cycloheptane] + CCCC[N+]1(C)CCCC1.O=S(=O)([O-])C(F)(F)F ; field requested: activity coefficient
24.9

Query (molecule): CCCCCC [hexane] + CCCC[N+]1(C)CCCC1.O=S(=O)([O-])C(F)(F)F ; field requested: activity coefficient
46.4

Query (molecule): CCCCC [pentane] + CCCC[N+]1(C)CCCC1.O=S(=O)([O-])C(F)(F)F ; field requested: activity coefficient
40.3

Query (molecule): O [water] + CCCC[N+]1(C)CCCC1.O=S(=O)([O-])C(F)(F)F ; field requested: activity coefficient
0.865

Query (molecule): C=CCCCCCC [oct-1-ene] + CCCC[N+]1(C)CCCC1.O=S(=O)([O-])C(F)(F)F ; field requested: activity coefficient
36.2

Query (molecule): CCCO [propan-1-ol] + CCCC[N+]1(C)CCCC1.O=S(=O)([O-])C(F)(F)F ; field requested: activity coefficient
1.2

Query (molecule): C1CCCCC1 [cyclohexane] + CCCC[N+]1(C)CCCC1.O=S(=O)([O-])C(F)(F)F ; field requested: activity coefficient
21.4

* * *

assay summary: activity coefficient (dimensionless); of the first substance listed, at infinite dilution; xn = mol fraction of the nth substance listed
run parameters: 308.15 K; Liquid; Chromatography; x1 = 0
reported metric: activity coefficient
Reply with just the number.

molecule: CCCCCCCCC [nonane] + CCCC[N+]1(C)CCCC1.O=S(=O)([O-])C(F)(F)F
readout value: 122

molecule: C#CCCCCCC [1-octyne] + CCCC[N+]1(C)CCCC1.O=S(=O)([O-])C(F)(F)F
readout value: 7.63

Query (molecule): C=CCCC [1-pentene] + CCCC[N+]1(C)CCCC1.O=S(=O)([O-])C(F)(F)F ; field requested: activity coefficient
16.3

Query (molecule): C1CCOC1 [tetrahydrofuran] + CCCC[N+]1(C)CCCC1.O=S(=O)([O-])C(F)(F)F ; field requested: activity coefficient
1.39

Query (molecule): Cc1ccc(C)cc1 [1,4-dimethylbenzene] + CCCC[N+]1(C)CCCC1.O=S(=O)([O-])C(F)(F)F ; field requested: activity coefficient
3.32

Query (molecule): C1CCCCCCC1 [cyclooctane] + CCCC[N+]1(C)CCCC1.O=S(=O)([O-])C(F)(F)F ; field requested: activity coefficient
34

Query (molecule): CCCCC [pentane] + CCCC[N+]1(C)CCCC1.O=S(=O)([O-])C(F)(F)F ; field requested: activity coefficient
46.1

Query (molecule): COC(C)(C)C [2-methoxy-2-methylpropane] + CCCC[N+]1(C)CCCC1.O=S(=O)([O-])C(F)(F)F ; field requested: activity coefficient
5.65

* * *

assay summary: activity coefficient (dimensionless); of the first substance listed, at infinite dilution; xn = mol fraction of the nth substance listed
run parameters: 308.15 K; Liquid; Chromatography; x1 = 0
Cut-off 3 on activity coefficient, inclusive. At or above means Y; below means N.

compound: C1CCCCCC1 [cycloheptane] + CCCC[N+]1(C)CCCC1.O=S(=O)([O-])C(F)(F)F
label class: Y
//
compound: CCCCCCCC [octane] + CCCC[N+]1(C)CCCC1.O=S(=O)([O-])C(F)(F)F
label class: Y

Reported activity coefficient at or above 3? C#CCCCCC [1-heptyne] + CCCC[N+]1(C)CCCC1.O=S(=O)([O-])C(F)(F)F
Y

Reported activity coefficient at or above 3? Cc1cccc(C)c1 [1,3-dimethylbenzene] + CCCC[N+]1(C)CCCC1.O=S(=O)([O-])C(F)(F)F
Y

Reported activity coefficient at or above 3? C1CCCCC1 [cyclohexane] + CCCC[N+]1(C)CCCC1.O=S(=O)([O-])C(F)(F)F
Y

* * *

assay summary: activity coefficient (dimensionless); of the first substance listed, at infinite dilution; xn = mol fraction of the nth substance listed
run parameters: 338.15 K; Liquid; Chromatography; x1 = 0
reported metric: activity coefficient
Reply with just the number.

Use these answered entries as a reference point.
molecule: C#CCCCC [1-hexyne] + CCCC[N+]1(C)CCCC1.O=S(=O)([O-])C(F)(F)F
reported metric: activity coefficient
readout value: 3.94
//
molecule: C1CCCCC1 [cyclohexane] + CCCC[N+]1(C)CCCC1.O=S(=O)([O-])C(F)(F)F
reported metric: activity coefficient
readout value: 18.1
//
molecule: C#CCCCCCC [1-octyne] + CCCC[N+]1(C)CCCC1.O=S(=O)([O-])C(F)(F)F
reported metric: activity coefficient
readout value: 7.83
//
molecule: COC(C)(C)C [2-methoxy-2-methylpropane] + CCCC[N+]1(C)CCCC1.O=S(=O)([O-])C(F)(F)F
reported metric: activity coefficient
readout value: 5.62
//
molecule: CCCCCCCCC [nonane] + CCCC[N+]1(C)CCCC1.O=S(=O)([O-])C(F)(F)F
reported metric: activity coefficient
readout value: 92.4
//
molecule: C#CCCCCC [1-heptyne] + CCCC[N+]1(C)CCCC1.O=S(=O)([O-])C(F)(F)F
reported metric: activity coefficient
readout value: 5.56

Query (molecule): c1ccsc1 [thiophene] + CCCC[N+]1(C)CCCC1.O=S(=O)([O-])C(F)(F)F ; field requested: activity coefficient
1.1

Query (molecule): C1CCCCCCC1 [cyclooctane] + CCCC[N+]1(C)CCCC1.O=S(=O)([O-])C(F)(F)F ; field requested: activity coefficient
26.9

Query (molecule): C1CCOC1 [tetrahydrofuran] + CCCC[N+]1(C)CCCC1.O=S(=O)([O-])C(F)(F)F ; field requested: activity coefficient
1.43

Query (molecule): CCCCCCCCCC [decane] + CCCC[N+]1(C)CCCC1.O=S(=O)([O-])C(F)(F)F ; field requested: activity coefficient
130

Query (molecule): C=CCCCCC [1-heptene] + CCCC[N+]1(C)CCCC1.O=S(=O)([O-])C(F)(F)F ; field requested: activity coefficient
23.6

Query (molecule): Cc1ccccc1C [1,2-dimethylbenzene] + CCCC[N+]1(C)CCCC1.O=S(=O)([O-])C(F)(F)F ; field requested: activity coefficient
2.97

Query (molecule): O [water] + CCCC[N+]1(C)CCCC1.O=S(=O)([O-])C(F)(F)F ; field requested: activity coefficient
0.794

Query (molecule): CCCCCCCC [octane] + CCCC[N+]1(C)CCCC1.O=S(=O)([O-])C(F)(F)F ; field requested: activity coefficient
67.2

* * *

assay summary: activity coefficient (dimensionless); of the first substance listed, at infinite dilution; xn = mol fraction of the nth substance listed
run parameters: 368.15 K; Liquid; Chromatography; x1 = 0
Cut-off 6 on activity coefficient, inclusive. At or above means 1 (yes); below means 0 (no).

molecule: CCCCO [butan-1-ol] + CCCC[N+]1(C)CCCC1.O=S(=O)([O-])C(F)(F)F
label class: 0 (no)

molecule: COC(C)(C)C [2-methoxy-2-methylpropane] + CCCC[N+]1(C)CCCC1.O=S(=O)([O-])C(F)(F)F
label class: 0 (no)

molecule: C=CCCCCCC [oct-1-ene] + CCCC[N+]1(C)CCCC1.O=S(=O)([O-])C(F)(F)F
label class: 1 (yes)

molecule: Cc1ccc(C)cc1 [1,4-dimethylbenzene] + CCCC[N+]1(C)CCCC1.O=S(=O)([O-])C(F)(F)F
label class: 0 (no)

Reported activity coefficient at or above 6? Cc1ccccc1C [1,2-dimethylbenzene] + CCCC[N+]1(C)CCCC1.O=S(=O)([O-])C(F)(F)F
0 (no)

Reported activity coefficient at or above 6? C=CCCCC [hex-1-ene] + CCCC[N+]1(C)CCCC1.O=S(=O)([O-])C(F)(F)F
1 (yes)

Reported activity coefficient at or above 6? C#CCCC [1-pentyne] + CCCC[N+]1(C)CCCC1.O=S(=O)([O-])C(F)(F)F
0 (no)

Reported activity coefficient at or above 6? CCCCCCCCC [nonane] + CCCC[N+]1(C)CCCC1.O=S(=O)([O-])C(F)(F)F
1 (yes)

Just for reference, the NIST ThermoML archive (doi:10.1016/j.fluid.2009.01.011) is where these values come from.
